These data points were gathered from the supplement of paper PMC5844555.

# Test system: MYT1L
# assay_details: 3' UTR reporter interaction score (median-centred robust z-score of log2 firefly/Renilla activity); higher = less repression of the 3' UTR reporter
# conditions_used: HEK293T; 48 h
observable: 3' UTR reporter interaction score

{"residues": "ACAGCAGGCACAGACAGGCAG", "3' UTR reporter interaction score": -1.17}
{"residues": "UAAAGUGCUUAUAGUGCAGGUAG", "3' UTR reporter interaction score": -0.414}
{"residues": "CUUGGUUCAGGGAGGGUCCCCA", "3' UTR reporter interaction score": 0.48}
{"residues": "UGUAAACAUCCCCGACUGGAAG", "3' UTR reporter interaction score": 0.873}
{"residues": "ACUCCAUUUGUUUUGAUGAUGGA", "3' UTR reporter interaction score": -0.15}

Look at each sequence and report its 3' UTR reporter interaction score.
1. CGAAUGUUGCUCGGUGAACCCCU
2. UUCAACGGGUAUUUAUUGAGCA
3. UUCACAGUGGCUAAGUUCUGC

[A]
1. 0.642
2. -0.699
3. 0.34

Look at each sequence and report its 3' UTR reporter interaction score.
1. UAGUACCAGUACCUUGUGUUCA
2. AAACCGUUACCAUUACUGAGUUU
3. GGCGGAGGGAAGUAGGUCCGUUGGU
4. GCAAAGCACACGGCCUGCAGAGA
5. GCCCCUGGGCCUAUCCUAGAA
6. GCCUGCUGGGGUGGAACCUGG
7. UACAGUAGUCUGCACAUUGGUU

[A]
0.421
1.68
0.0209
-0.692
-0.294
-0.443
3.26

###

# Test system: TP53
# assay_details: 3' UTR reporter interaction score (median-centred robust z-score of log2 firefly/Renilla activity); higher = less repression of the 3' UTR reporter
# conditions_used: HEK293T; 48 h
Hi, to clarify the labels: true (1) covers 3' UTR reporter interaction score from 0.4 upward, false (0) covers anything below 0.4.

Take a look at these entries with their results.
{"residues": "UAUGCAUUGUAUUUUUAGGUCC", "class": "false (0)"}
{"residues": "UAACACUGUCUGGUAAAGAUGG", "class": "true (1)"}
{"residues": "UGCUGACUCCUAGUCCAGGGC", "class": "false (0)"}

[Q] Is 3' UTR reporter interaction score at least 0.4? Consider `UCGGGGAUCAUCAUGUCACGAG`
[A] false (0)

[Q] Param item: `UAAUACUGCCGGGUAAUGAUGG`
[A] false (0)

[Q] Param item: `CAAAAAUCUCAAUUACUUUUGC`
[A] false (0)

[Q] Param item: `UAAGGUGCAUCUAGUGCAGAUA`
[A] true (1)

[Q] Param item: `CAACCUGGAGGACUCCAUGCUG`
[A] false (0)

###

# Tested on: RB1
# assay_details: 3' UTR reporter interaction score (median-centred robust z-score of log2 firefly/Renilla activity); higher = less repression of the 3' UTR reporter
# conditions_used: HEK293T; 48 h
observable: 3' UTR reporter interaction score
Numbers only.

The following sequences have reported results that may help.
{"residues": "GCUGCGCUUGGAUUUCGUCCCC", "measured_on": "RB1", "3' UTR reporter interaction score": 1.16}
{"residues": "CAAGUCACUAGUGGUUCCGUUUA", "measured_on": "RB1", "3' UTR reporter interaction score": 1.58}

Look at each sequence and report its 3' UTR reporter interaction score.
1. GAGCUUAUUCAUAAAAGUGCAG
2. UCUAGUAAGAGUGGCAGUCG
3. GUGCAUUGCUGUUGCAUUGCA
4. AAUGACACGAUCACUCCCGUUGA
5. UAUGGCUUUUUAUUCCUAUGUGA

[A]
1. 2.05
2. -1.19
3. -0.687
4. -0.373
5. -0.178

###

# Test system: MYT1L
# assay_details: 3' UTR reporter interaction score (median-centred robust z-score of log2 firefly/Renilla activity); higher = less repression of the 3' UTR reporter
# conditions_used: HEK293T; 48 h
I'd appreciate it if you could supply 3' UTR reporter interaction score values for the items below.
Answers are plain numbers.

The following sequences have reported results that may help.
{"residues": "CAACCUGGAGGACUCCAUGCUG", "recorded_result": 0.329}
{"residues": "UAGGUAGUUUCAUGUUGUUGG", "recorded_result": 1.55}
{"residues": "ACAUAGAGGAAAUUCCACGUUU", "recorded_result": -0.235}
{"residues": "UGAGAACUGAAUUCCAUAGGCU", "recorded_result": 0.753}
{"residues": "CUGAAGUGAUGUGUAACUGAUCAG", "recorded_result": 1.21}
{"residues": "ACAAAGUGCUUCCCUUUAGAGU", "recorded_result": -0.45}
{"residues": "UGUCAGUUUGUCAAAUACCCC", "recorded_result": 0.484}
{"residues": "UGUUUGCAGAGGAAACUGAGAC", "recorded_result": -0.13}
{"residues": "UGAGCUGCUGUACCAAAAU", "recorded_result": 0.273}
{"residues": "UUAUGGUUUGCCUGGGACUGAG", "recorded_result": 1.06}

Look at each sequence and report its 3' UTR reporter interaction score.
1. UAUUGCACUCGUCCCGGCCUC
2. ACAGUCUGCUGAGGUUGGAGC
3. AUCGCUGCGGUUGCGAGCGCUGU
4. UGCACCAUGGUUGUCUGAGCAUG

[A]
[-1.11, -0.4, 1.61, 0.0254]

Look at each sequence and report its 3' UTR reporter interaction score.
1. UCUACAGUGCACGUGUCU
2. AAACUACUGAAAAUCAAAGAU

[A]
0.894
-0.7

###

# System: MYCN
# assay_details: 3' UTR reporter interaction score (median-centred robust z-score of log2 firefly/Renilla activity); higher = less repression of the 3' UTR reporter
# conditions_used: HEK293T; 48 h
observable: 3' UTR reporter interaction score

{"residues": "UCGUACCGUGAGUAAUAAUGC", "observable": "3' UTR reporter interaction score", "recorded_result": 0.512}

Look at each sequence and report its 3' UTR reporter interaction score.
1. CUGGAUGGCUCCUCCAUGUCU
2. AGAGGCUGGCCGUGAUGAAUUC

[A]
1: 1.88; 2: 0.202

Look at each sequence and report its 3' UTR reporter interaction score.
1. AUCAUAGAGGAAAAUCCAUGUU
2. UGGUGCGGAGAGGGCCCACAGUG
3. AAAGUAGCUGUACCAUUUGC
4. ACUCAAAAUGGGGGCGCUUUCC

[A]
1. 0.0452
2. 0.131
3. 0.676
4. -0.623

###

I'd appreciate it if you could supply 3' UTR reporter interaction score values for the items below.
# Tested on: MYT1L
# assay_details: 3' UTR reporter interaction score (median-centred robust z-score of log2 firefly/Renilla activity); higher = less repression of the 3' UTR reporter
# conditions_used: HEK293T; 48 h
Give bare numbers.

The following sequences have reported results that may help.
{"residues": "GAAGUUGUUCGUGGUGGAUUCG", "observable": "3' UTR reporter interaction score", "recorded_result": -1.32}
{"residues": "CAUUGCACUUGUCUCGGUCUGA", "observable": "3' UTR reporter interaction score", "recorded_result": 0.397}
{"residues": "UACUGCAUCAGGAACUGAUUGGAU", "observable": "3' UTR reporter interaction score", "recorded_result": 1.06}
{"residues": "AGUGACAUCACAUAUACGGCAGC", "observable": "3' UTR reporter interaction score", "recorded_result": 0.969}
{"residues": "AAUAUUAUACAGUCAACCUCU", "observable": "3' UTR reporter interaction score", "recorded_result": 0}
{"residues": "AACCAGCACCCCAACUUUGGAC", "observable": "3' UTR reporter interaction score", "recorded_result": 0.0434}

Look at each sequence and report its 3' UTR reporter interaction score.
1. AAAAGCUGGGUUGAGAGGGCGAA
2. AGGGGGAAAGUUCUAUAGUCCU

[A]
-0.165
-0.154

###

# Test system: PHOX2B
# assay_details: 3' UTR reporter interaction score (median-centred robust z-score of log2 firefly/Renilla activity); higher = less repression of the 3' UTR reporter
# conditions_used: HEK293T; 48 h
Classify on 3' UTR reporter interaction score using bottom range = under -0.1, center range = from -0.1 up to 0.6, top range = 0.6 and over

[Q] Category of `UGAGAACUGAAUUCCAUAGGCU` , please.
[A] bottom range

[Q] Param item: `UAUGUGCCUUUGGACUACAUCG`
[A] bottom range

[Q] Param item: `UGCUUCCUUUCAGAGGGU`
[A] bottom range

[Q] Param item: `GUUGGAGGAUGAAAGUACGGAGUGAU`
[A] top range

[Q] Param item: `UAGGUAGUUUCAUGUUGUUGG`
[A] top range

[Q] Param item: `UAAACGUGGAUGUACUUGCUUU`
[A] bottom range

[Q] Param item: `UCGUGUCUUGUGUUGCAGCCG`
[A] bottom range

[Q] Param item: `UCACAGUGAACCGGUCUCUUUU`
[A] bottom range
